Tested on: E. coli MP-4
Experiment: MIC determination by CLSI broth dilution, E. coli MP-4
Type: cell-based
Conditions: Escherichia coli, MP4, CLSI broth dilution; strain MP-4

[
  {
    "Compound": "CO[C@]1(C)C[C@@H](C)CN(CC(C)C)[C@@H](CCCN2CCCCC2)COC(=O)C(C)(C)C(=O)[C@H](C)[C@H]1O[C@@H]1O[C@H](C)C[C@H](N(C)C)[C@H]1O [Compound 121]",
    "MIC": "< 4 µg/mL"
  },
  {
    "Compound": "CO[C@]1(C)C[C@@H](C)CN(C)[C@H](CCC2CCN(CC(C)C)CC2)COC(=O)C(C)(C)C(=O)[C@H](C)[C@H]1O[C@@H]1O[C@H](C)C[C@H](N(C)C)[C@H]1O [Compound 76]",
    "MIC": "< 4 µg/mL"
  },
  {
    "Compound": "CO[C@]1(C)C[C@@H](C)CN(C)[C@@H](CCCN2CCC2)COC(=O)C(C)(C)C(=O)[C@H](C)[C@H]1O[C@@H]1O[C@H](C)C[C@H](N(C)C)[C@H]1O [Compound 160]",
    "MIC": "< 4 µg/mL"
  }
]

----------
Below, each of the molecules is paired with its reported MIC value.
Tested on: K. pneumoniae MP-648
Assay: MIC determination by CLSI broth dilution, K. pneumoniae MP-648
Assay type: cell-based
Details: Klebsiella pneumoniae, MP648, CLSI broth dilution; strain MP-648

[
  {
    "Input smiles": "CCN1C[C@H](C)C[C@@](C)(OC)[C@H](O[C@@H]2O[C@H](C)C[C@H](N(C)C)[C@H]2O)[C@@H](C)C(=O)C(C)(C)C(=O)OC[C@H]1[C@@H](CCN1CCCC1)OC",
    "MIC": "4 to 32 µg/mL"
  },
  {
    "Input smiles": "CO[C@]1(C)C[C@@H](C)CN(C)[C@@H](CCCN2CCC(O)CC2)COC(=O)C(C)(C)C(=O)[C@H](C)[C@H]1O[C@@H]1O[C@H](C)C[C@H](N(C)C)[C@H]1O",
    "MIC": "4 to 32 µg/mL"
  },
  {
    "Input smiles": "CO[C@]1(C)C[C@@H](C)CN(C)[C@H](/C=C/CN2CCCC2)COC(=O)C(C)(C)C(=O)[C@H](C)[C@H]1O[C@@H]1O[C@H](C)C[C@H](N(C)C)[C@H]1O",
    "MIC": "< 4 µg/mL"
  },
  {
    "Input smiles": "CO[C@]1(C)C[C@@H](C)CN(CC(C)C)[C@@H](CCCN2CCc3ccccc3C2)COC(=O)C(C)(C)C(=O)[C@H](C)[C@H]1O[C@@H]1O[C@H](C)C[C@H](N(C)C)[C@H]1O",
    "MIC": "4 to 32 µg/mL"
  },
  {
    "Input smiles": "CO[C@]1(C)C[C@@H](C)CN(C)[C@H](CCC2CCN(CC(C)C)CC2)COC(=O)C(C)(C)C(=O)[C@H](C)[C@H]1O[C@@H]1O[C@H](C)C[C@H](N(C)C)[C@H]1O",
    "MIC": "4 to 32 µg/mL"
  }
]

----------
Tested on: K. pneumoniae MP-546
Assay: MIC determination by CLSI broth dilution, K. pneumoniae MP-546
Type: cell-based
Conditions: Klebsiella pneumoniae, MP546, CLSI broth dilution; strain MP-546

[
  {
    "Compound": "CCN1C[C@H](C)C[C@@](C)(OC)[C@H](O[C@@H]2O[C@H](C)C[C@H](N(C)C)[C@H]2O)[C@@H](C)C(=O)C(C)(C)C(=O)OC[C@H]1CCCN1CCC[C@@H]1C [Compound 88]",
    "MIC": "< 4 µg/mL"
  },
  {
    "Compound": "CO[C@]1(C)C[C@@H](C)CN(C)[C@@H](CCCN2CCC(F)(F)CC2)COC(=O)C(C)(C)C(=O)[C@H](C)[C@H]1O[C@@H]1O[C@H](C)C[C@H](N(C)C)[C@H]1O [Compound 110]",
    "MIC": "4 to 32 µg/mL"
  },
  {
    "Compound": "C=C(C[C@@H]1COC(=O)C(C)(C)C(=O)[C@H](C)[C@@H](O[C@@H]2O[C@H](C)C[C@H](N(C)C)[C@H]2O)[C@](C)(OC)C[C@@H](C)CN1C)CN(CCC)CCC [Compound 2]",
    "MIC": "> 32 µg/mL"
  },
  {
    "Compound": "CO[C@]1(C)C[C@@H](C)CN(C)[C@@H](CCCN2CC[C@H](F)C2)COC(=O)C(C)(C)C(=O)[C@H](C)[C@H]1O[C@@H]1O[C@H](C)C[C@H](N(C)C)[C@H]1O [Compound 125]",
    "MIC": "< 4 µg/mL"
  },
  {
    "Compound": "CCCCCCCN1CCC(C[C@@H]2COC(=O)[C@@](C)(COC)C(=O)[C@H](C)[C@@H](O[C@@H]3O[C@H](C)C[C@H](N(C)C)[C@H]3O)[C@](C)(OC)C[C@@H](C)CN2C)CC1 [Compound 176]",
    "MIC": "< 4 µg/mL"
  },
  {
    "Compound": "CNC[C@H]1COC(=O)C(C)(C)C(=O)[C@H](C)[C@@H](O[C@@H]2O[C@H](C)C[C@H](N(C)C)[C@H]2O)[C@](C)(OC)C[C@@H](C)CN1C [Compound 9]",
    "MIC": "4 to 32 µg/mL"
  }
]

----------
Below, each of the compounds is paired with its reported MIC value.
Test system: P. aeruginosa MP-3
Test: MIC determination by CLSI broth dilution, P. aeruginosa MP-3
Format: cell-based
Settings: Pseudomonas aeruginosa, MP3, strain MP-3

[
  {
    "Input smiles": "CO[C@]1(C)C[C@@H](C)CN(C)[C@@H](CN2CCN(S(=O)(=O)c3cn(C)cn3)CC2)[C@H](C)OC(=O)C(C)(C)C(=O)[C@H](C)[C@H]1O[C@@H]1O[C@H](C)C[C@H](N(C)C)[C@H]1O",
    "MIC": "> 32 µg/mL"
  },
  {
    "Input smiles": "CO[C@]1(C)C[C@@H](C)CN(C)[C@@H](C(=O)N2CCNCC2)[C@H](C)OC(=O)C(C)(C)C(=O)[C@H](C)[C@H]1O[C@@H]1O[C@H](C)C[C@H](N(C)C)[C@H]1O",
    "MIC": "> 32 µg/mL"
  },
  {
    "Input smiles": "CCN(C)CC[C@@H](O)[C@@H]1COC(=O)C(C)(C)C(=O)[C@H](C)[C@@H](O[C@@H]2O[C@H](C)C[C@H](N(C)C)[C@H]2O)[C@](C)(OC)C[C@@H](C)CN1CC",
    "MIC": "> 32 µg/mL"
  }
]

----------
Tested on: K. pneumoniae MP-648
Test: MIC determination by CLSI broth dilution, K. pneumoniae MP-648
Assay type: cell-based
Settings: Klebsiella pneumoniae, MP648, CLSI broth dilution; strain MP-648

[
  {
    "Input smiles": "CO[C@]1(C)C[C@@H](C)CN(C)[C@@H](CCCN2CCc3ccccc3C2)COC(=O)C(C)(C)C(=O)[C@H](C)[C@H]1O[C@@H]1O[C@H](C)C[C@H](N(C)C)[C@H]1O",
    "MIC": "< 4 µg/mL"
  },
  {
    "Input smiles": "CCN1C[C@H](C)C[C@@](C)(OC)[C@H](O[C@@H]2O[C@H](C)C[C@H](N(C)C)[C@H]2O)[C@@H](C)C(=O)C(C)(C)C(=O)OC[C@H]1CCCN1CCC[C@@H]1C",
    "MIC": "< 4 µg/mL"
  },
  {
    "Input smiles": "CO[C@]1(C)C[C@@H](C)CN(C)[C@@H](CCCO)COC(=O)C(C)(C)C(=O)[C@H](C)[C@H]1O[C@@H]1O[C@H](C)C[C@H](N(C)C)[C@H]1O",
    "MIC": "4 to 32 µg/mL"
  }
]

----------
Test system: K. pneumoniae MP-546
Test: MIC determination by CLSI broth dilution, K. pneumoniae MP-546
Format: cell-based
Settings: Klebsiella pneumoniae, MP546, CLSI broth dilution; strain MP-546
Quantity name: MIC

[
  {
    "Molecule": "CCN1C[C@H](C)C[C@@](C)(OC)[C@H](O[C@@H]2O[C@H](C)C[C@H](N(C)C)[C@H]2O)[C@@H](C)C(=O)C(C)(C)C(=O)OC[C@H]1CCCN1CCCC1",
    "Test result": "< 4 µg/mL"
  },
  {
    "Molecule": "CCC(CCNCC(C)C)C[C@@H]1COC(=O)C(C)(C)C(=O)[C@H](C)[C@@H](O[C@@H]2O[C@H](C)C[C@H](N(C)C)[C@H]2O)[C@](C)(OC)C[C@@H](C)CN1C (stereo partly drawn)",
    "Test result": "< 4 µg/mL"
  },
  {
    "Molecule": "CCCN1C[C@H](C)C[C@@](C)(OC)[C@H](O[C@@H]2O[C@H](C)C[C@H](N(C)C)[C@H]2O)[C@@H](C)C(=O)C(C)(C)C(=O)OC[C@H]1CCCN1CCCC1",
    "Test result": "< 4 µg/mL"
  }
]
